system: 388556-164-R-J1-PDC complex spheroid viability; experiment: Anticancer human tumor 388556-164-R-J1-PDC patient-derived colon adenocarcinoma cell line growth inhibition [RAS]; settings: second compound 0.3 µM; first compound 3.16 µM; stronger effect = lower value
Could you please report measured viability, T/C for the items listed next?
One number for each entry, in %.

NC1c2ccccc2OC12CCN(c1cnc3c(N4CCCc5ncccc54)n[nH]c3n1)CC2 (stereo not drawn) + CCn1c(-c2cc(N3CCN(C)CC3)cnc2C(C)OC)c2c3cc(ccc31)-c1csc(n1)CC(NC(=O)C1CC1C)C(=O)N1CCCC(N1)C(=O)OCC(C)(C)C2; 22.2
CC(Nc1ccc2c(c1)OCCn1cc(N3C(=O)OCC3C(F)F)nc1-2)C(N)=O (stereo not drawn) + CCn1c(-c2cc(N3CCN(C)CC3)cnc2C(C)OC)c2c3cc(ccc31)-c1csc(n1)CC(NC(=O)C1CC1C)C(=O)N1CCCC(N1)C(=O)OCC(C)(C)C2; 18.6

Attention now shifts to the item below.
Which viability, T/C value is on record for CCC(CC)c1cc(NC2CCC(N)C2)n2nccc2n1 (stereo not drawn) + CCn1c(-c2cccnc2C(C)OC)c2c3cc(ccc31)N1CCOC(CC(NC(=O)C(C(C)C)N(C)C(=O)C3(F)CCN(C(=O)C#CC(C)(C)N(C)C)CC3)C(=O)N3CCCC(N3)C(=O)OCC(C)(C)C2)C1 ?
47.2

* * *

test system: 388556-164-R-J1-PDC complex spheroid viability; assay: Anticancer human tumor 388556-164-R-J1-PDC cell line growth inhibition [RAS]; conditions: second compound 0.00949 µM; first compound 0.00316 µM; stronger effect = lower value;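 also: spheroids exposed to compound for 7 days before readout; 100% = DMSO vehicle control luminescence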
Consider the following compounds; for each one, report its viability, T/C.
One number for each entry, in %.

Nc1ccn(C2OC(CO)C(O)C2(F)F)c(=O)n1 (stereo not given) + CCn1c(-c2cccnc2C(C)OC)c2c3cc(ccc31)N1CCOC(CC(NC(=O)C(C(C)C)N(C)C(=O)C3(F)CCN(C(=O)C#CC(C)(C)N(C)C)CC3)C(=O)N3CCCC(N3)C(=O)OCC(C)(C)C2)C1; 99.1
C=CC(=O)Nc1cc(Nc2nccc(-c3cn(C)c4ccccc34)n2)c(OC)cc1N(C)CCN(C)C + CCn1c(-c2cc(N3CCN(C)CC3)cnc2C(C)OC)c2c3cc(ccc31)-c1csc(n1)CC(NC(=O)C1CC1C)C(=O)N1CCCC(N1)C(=O)OCC(C)(C)C2; 79.2
O=C(c1ccc(F)c(F)c1Nc1ccc(I)cc1F)N1CC(O)([C@@H]2CCCCN2)C1 + CCn1c(-c2cc(N3CCN(C)CC3)cnc2C(C)OC)c2c3cc(ccc31)-c1csc(n1)CC(NC(=O)C1CC1C)C(=O)N1CCCC(N1)C(=O)OCC(C)(C)C2; 80.9

Give viability, T/C for each listed item.
1. C=CC(=O)N1CCN(c2nc(OCC3CCCN3C)nc3c(F)c(-c4nc(N)cc(C)c4C(F)(F)F)c(Cl)cc23)C(C)C1 (stereo not given) + CCn1c(-c2cc(N3CCN(C)CC3)cnc2C(C)OC)c2c3cc(ccc31)-c1csc(n1)CC(NC(=O)C1CC1C)C(=O)N1CCCC(N1)C(=O)OCC(C)(C)C2
2. CC(C)n1nc(-c2ccc3oc(N)nc3c2)c2c(N)ncnc21 + CCn1c(-c2cccnc2C(C)OC)c2c3cc(ccc31)N1CCOC(CC(NC(=O)C(C(C)C)N(C)C(=O)C3(F)CCN(C(=O)C#CC(C)(C)N(C)C)CC3)C(=O)N3CCCC(N3)C(=O)OCC(C)(C)C2)C1
3. CC(C)n1nc(-c2ccc3oc(N)nc3c2)c2c(N)ncnc21 + CCn1c(-c2cc(N3CCN(C)CC3)cnc2C(C)OC)c2c3cc(ccc31)-c1csc(n1)CC(NC(=O)C1CC1C)C(=O)N1CCCC(N1)C(=O)OCC(C)(C)C2
4. O=C(c1ccc(F)c(F)c1Nc1ccc(I)cc1F)N1CC(O)([C@@H]2CCCCN2)C1 + CCn1c(-c2cccnc2C(C)OC)c2c3cc(ccc31)N1CCOC(CC(NC(=O)C(C(C)C)N(C)C(=O)C3(F)CCN(C(=O)C#CC(C)(C)N(C)C)CC3)C(=O)N3CCCC(N3)C(=O)OCC(C)(C)C2)C1
5. C=CC(=O)Nc1cc(Nc2nccc(-c3cn(C)c4ccccc34)n2)c(OC)cc1N(C)CCN(C)C + CCn1c(-c2cccnc2C(C)OC)c2c3cc(ccc31)N1CCOC(CC(NC(=O)C(C(C)C)N(C)C(=O)C3(F)CCN(C(=O)C#CC(C)(C)N(C)C)CC3)C(=O)N3CCCC(N3)C(=O)OCC(C)(C)C2)C1
6. CCN1CCN(Cc2ccc(Nc3ncc(F)c(-c4cc(F)c5nc(C)n(C(C)C)c5c4)n3)nc2)CC1 + CCn1c(-c2cc(N3CCN(C)CC3)cnc2C(C)OC)c2c3cc(ccc31)-c1csc(n1)CC(NC(=O)C1CC1C)C(=O)N1CCCC(N1)C(=O)OCC(C)(C)C2
7. Nc1ccn(C2OC(CO)C(O)C2(F)F)c(=O)n1 (stereo not given) + CCn1c(-c2cc(N3CCN(C)CC3)cnc2C(C)OC)c2c3cc(ccc31)-c1csc(n1)CC(NC(=O)C1CC1C)C(=O)N1CCCC(N1)C(=O)OCC(C)(C)C2

1: 87; 2: 96; 3: 59.4; 4: 100; 5: 105; 6: 79.8; 7: 80.1
